Each recorded value in this set is attributed to ChEMBL document CHEMBL3507680.

test: Human HepG2 cell viability assay in 384 well format; assay type: toxicity, cell-based; set-up: dose 125 nL, time 70.5 hour; concentration not given beside the values; conditions: HepG2 cells, read-out: Inhibition
recorded-endpoint: cytotoxicity at 70.5 h

[[record]]
compound = "O=C(CNC(Cn1cccn1)c1ccccc1)Nc1cnccn1 (configuration not stated)"
reported_value = "13%"

[[record]]
compound = "CN1CCC(N(C)CCC(=O)N2CCC(CCc3ccccc3)CC2)C1 (configuration not stated)"
reported_value = "26.3%"

[[record]]
compound = "Cc1cc(NCCO)nc(N2CCN(C)CC2)c1C#N"
reported_value = "1.33%"

[[record]]
compound = "O=C(NCC1(O)CCOc2ccccc21)Nc1ccc2c(c1)OCO2 (configuration not stated)"
reported_value = "0.267%"

[[record]]
compound = "CCc1c(C)nc2cc(C3CCN(Cc4ccncc4C)C3)nn2c1O (configuration not stated)"
reported_value = "-3.92%"

[[record]]
compound = "O=C1NCCCCC1NC(=O)C1(c2ccc3c(c2)OCCO3)CCCC1 (configuration not stated)"
reported_value = "27.7%"

[[record]]
compound = "O=c1n(Cc2ccc(C(F)(F)F)cc2)nc2ncccn12"
reported_value = "24.3%"

[[record]]
compound = "CN(CC(N)=O)CC1(c2ccc(Br)cc2)CC1"
reported_value = "-5.53%"

[[record]]
compound = "Fc1cccc(CNc2cncc(-n3cccn3)n2)c1"
reported_value = "-6.71%"

[[record]]
compound = "CCNc1ccnc(N2CCCC(CCOC)(C(=O)O)C2)n1 (configuration not stated)"
reported_value = "23.1%"

[[record]]
compound = "CC1(C)CNC(=O)c2nc(CCN3CCCCC3CO)[nH]c2C1 (configuration not stated)"
reported_value = "4.33%"

[[record]]
compound = "O=C(NCC(O)c1ccoc1)Nc1cccs1 (configuration not stated)"
reported_value = "-6.41%"


###

test: Human HepG2 cell viability assay in 384 well format; type: toxicity, cell-based; design: dose 125 nL, time 70.5 hour; concentration not given beside the values; settings: HepG2 cells, read-out: Inhibition
Item-by-item account of cytotoxicity at 70.5 h
recorded-endpoint: cytotoxicity at 70.5 h (%)

[[record]]
compound = "COCCOCCNC(=O)c1cccc(Cn2nc(C)cc2C)c1"
reported_value = 34.2

[[record]]
compound = "Cc1ccc(-c2nc(CN3CCN(S(=O)(=O)N(C)C)CC3)cs2)o1"
reported_value = 1.51

[[record]]
compound = "Cc1cccc(Nc2nccnc2C2CCCN2CC(=O)N(C)C)n1 (stereo not drawn)"
reported_value = 18.8

[[record]]
compound = "CCOc1ccc(NC(C)=O)cc1S(=O)(=O)Nc1cc(C)on1"
reported_value = -6.08

[[record]]
compound = "CO[C@@H]1CN(c2ccccc2)S(=O)(=O)[C@@]12CCN(C(=O)N(C)C)C2"
reported_value = -5.12

[[record]]
compound = "Cc1cc(C2CCCN(CCNS(=O)(=O)c3ccccc3)C2)n[nH]1 (stereo not drawn)"
reported_value = 24.5

[[record]]
compound = "COC[C@H](C)Nc1cc(C)c2ccc(SC)cc2n1"
reported_value = -8

[[record]]
compound = "CNC(=O)c1cc2c(nc1NCC1CC1)CCNCC2"
reported_value = 4.29

[[record]]
compound = "CCOCCN1Cc2cnn(C)c2C(COCC)C1 (stereo not drawn)"
reported_value = 8.6

[[record]]
compound = "Cc1ccc(CNC(C)(C)c2noc(C(C)(C)C)n2)o1"
reported_value = -1.89

[[record]]
compound = "Fc1cnc(N2CCO[C@H]3CN(CC4CCCC4)C[C@H]32)nc1"
reported_value = -13

[[record]]
compound = "Cc1cc(C(=O)NCc2ccnc(OCC(F)(F)F)c2)on1"
reported_value = 16.2

[[record]]
compound = "c1coc(-c2nc(CN3CCCC(Cn4cncn4)C3)cs2)c1 (stereo not drawn)"
reported_value = 20.4

[[record]]
compound = "Cc1cc(O)nc(C2CN(CC3(O)CCOCC3)CCO2)n1 (stereo not drawn)"
reported_value = 8.89

[[record]]
compound = "Cc1ccccc1-c1noc(CN2CC(n3cccn3)C2)n1"
reported_value = -5.02

[[record]]
compound = "Cc1cccc(OCCC(=O)N(C)CCNS(C)(=O)=O)c1C"
reported_value = 0.181

[[record]]
compound = "Cc1nnc([C@@H]2CC[C@@H]3[C@@H](CCN3C3CCOCC3)O2)o1"
reported_value = -3.43

[[record]]
compound = "CNS(=O)(=O)CCN1CC(c2ccccc2)(c2ccccc2)CCC1=O"
reported_value = 5.38

[[record]]
compound = "Cc1cc(C)n(CC2CCCN2CCCc2nc3ccccc3o2)n1 (stereo not drawn)"
reported_value = -1.67

[[record]]
compound = "O=C([C@H]1COC[C@H]2CN(CC3CCCC3)C[C@H]21)N1CCOCC1"
reported_value = 2.13

[[record]]
compound = "Cc1cc(C(F)(F)F)nn1CC(C)C(=O)NC(C)C (stereo not drawn)"
reported_value = 19.9

[[record]]
compound = "c1cnc(N2CCO[C@H]3[C@H](OCCN4CCOCC4)CC[C@@H]32)nc1"
reported_value = -2.53

[[record]]
compound = "O=C(c1cc(=O)c(OCc2ccccc2F)co1)N1CCSCC1"
reported_value = -3.38

